- target.of.assay: Cyclic GMP-AMP synthase (Homo sapiens, UniProt Q8N884)
- Sequence (Q8N884 whole entry): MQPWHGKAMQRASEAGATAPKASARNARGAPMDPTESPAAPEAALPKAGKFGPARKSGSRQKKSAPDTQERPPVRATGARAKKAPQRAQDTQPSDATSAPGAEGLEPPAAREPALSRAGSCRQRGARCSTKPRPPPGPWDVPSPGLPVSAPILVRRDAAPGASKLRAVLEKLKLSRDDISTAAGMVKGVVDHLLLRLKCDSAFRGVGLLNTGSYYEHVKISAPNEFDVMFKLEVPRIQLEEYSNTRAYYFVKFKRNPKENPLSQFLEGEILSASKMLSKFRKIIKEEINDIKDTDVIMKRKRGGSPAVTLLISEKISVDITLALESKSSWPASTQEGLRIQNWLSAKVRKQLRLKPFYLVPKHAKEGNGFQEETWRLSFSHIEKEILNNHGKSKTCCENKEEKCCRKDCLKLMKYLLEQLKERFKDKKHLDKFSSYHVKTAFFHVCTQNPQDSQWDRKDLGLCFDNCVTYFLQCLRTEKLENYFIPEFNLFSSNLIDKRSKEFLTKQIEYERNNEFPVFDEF
- assay.overview: Inhibition of recombinant His6-SUMO tagged human CGAS expressed in Escherichia coli BL21/pLys cells incubated for 20 mins by Kinase Glo chemiluminescence assay
parameter.measured: IC50

| molecule | IC50 |
| --- | --- |
| COc1cc(/C=C2\SC(=O)N(C)C2=O)c(Br)cc1NS(=O)(=O)c1ccccc1 | ≥ 10000 nM |

Write down IC50 measured for item Nc1ncc(COc2cc(/C=c3\sc4nccn4c3=O)c(Br)cc2O)cn1
500 to 10000 nM

// Input: COc1cc(/C=C2\Sc3ncccc3C2=O)c(C)cc1O . Output its IC50 only.
500 to 10000 nM

Indicate the recorded IC50 value for this molecule: CCOc1cc(/C=C2\SC(=O)N(C)C2=O)c(Br)cc1O
≤ 500 nM

# return recorded IC50 for input CC(Oc1cc(/C=C2\Sc3ncc(F)cc3C2=O)c(Br)c(F)c1O)c1cnc(N)nc1 (centres undefined)
≤ 500 nM

Query IC50 for Cc1ncc(COc2cc(/C=C3\SC(=O)N(C)C3=O)c(Br)c(F)c2O)cn1
500 to 10000 nM

Read off the recorded IC50 for CN1C(=O)S/C(=C\c2cc(OCC3CCCCC3)c(O)cc2Br)C1=O
≥ 10000 nM

Report IC50 for COc1cc(/C=C2\Sc3ncc(F)cc3C2=O)c(Br)cc1O
≤ 500 nM

Given CSc1nc([S+](C)[O-])ncc1COc1cc(/C=C2\Sc3ncccc3C2=O)c(Br)c(F)c1O (centres undefined) , respond with its IC50.
≤ 500 nM

* * *

- target.of.assay: UniProtKB Q8N884
- assay.overview: Inhibition of CGAS in human THP1 cells transfected with interferon stimulatory DNA and measured after 16 hrs by Gaussia luciferase reporter gene assay
- Assay type: cell-based
IC50 reference

Illustrative cases are given below, each with its answer.
| compound | target.of.assay | IC50 |
| --- | --- | --- |
| CC(C)C(=O)N1CCC(COc2cc(/C=C3\SC(=O)N(C)C3=O)c(Br)cc2O)CC1 | UniProtKB Q8N884 | 2500 to 10000 nM |
| CN1C(=O)S/C(=C\c2cc(OCc3cnc(NCc4ccncc4)nc3)c(O)cc2Br)C1=O | UniProtKB Q8N884 | 2500 to 10000 nM |
| CN1C(=O)S/C(=C\c2cc(OCc3cnc(NCc4cccnc4)nc3)c(O)c(F)c2Br)C1=O | UniProtKB Q8N884 | 2500 to 10000 nM |

Alright, here's another compound for you.
Report measured IC50 on UniProtKB Q8N884; entry: C[S+]([O-])c1ncc(COc2cc(/C=C3\Sc4ncccc4C3=O)c(Br)cc2O)cn1 (centres undefined)
≤ 2500 nM

* * *

compounds and their reported pIC50
- target.of.assay: Cyclic GMP-AMP synthase (Homo sapiens)
- assay.overview: Inhibition of recombinant His6-SUMO tagged human CGAS expressed in Escherichia coli BL21/pLys cells incubated for 20 mins by Kinase Glo chemiluminescence assay
pIC50: −log10 of the molar value.

| compound | parameter.measured | value.observed |
| --- | --- | --- |
| O=C1NC(=O)/C(=C/c2cncnc2)S1 | pIC50 | ≤ 5.00 |

Specify reported pIC50 for the compound shown: CSc1ncc(COc2cc(/C=C3\SC(=O)N(C)C3=O)c(Br)cc2O)c(Cl)n1
≤ 5.00

Output pIC50 of CN1C(=O)S/C(=C\c2cc3oc(=O)[nH]c3cc2Br)C1=O
≤ 5.00

Provide only the value of recorded pIC50 for CN1C(=O)S/C(=C\c2cc(OCc3cncnc3)c(O)cc2Br)C1=O
≥ 6.30

Respond only with pIC50 recorded for CN1C(=O)S/C(=C\c2cc(OCCc3cnc(N)nc3)c(O)cc2Br)C1=O
≥ 6.30

Respond only with pIC50 recorded for CCN1C(=O)S/C(=C\c2cc(OC)c(O)cc2Br)C1=O
5.00 to 6.30

Tell us which pIC50 value is on record for COc1cc(/C=C2\SC(=O)N(C)C2=O)c(Br)cc1NS(=O)(=O)c1ccccn1
≤ 5.00

Consider the compound CN1C(=O)S/C(=C\c2cc(OCc3cnc(NCc4ccccn4)nc3)c(O)cc2Br)C1=O . State its measured pIC50.
≥ 6.30

For COc1cc(/C=C2\SC(=O)N(C)C2=O)c(Br)c(F)c1O , write its pIC50.
≥ 6.30

Indicate its recorded pIC50; the compound in question is CC(Oc1cc(/C=C2\SC(=O)N(C)C2=O)c(Br)c(F)c1Oc1cnc(N)s1)c1cnc(N)nc1 (stereo not drawn)
5.00 to 6.30

Name the recorded pIC50 of the item CN1C(=O)S/C(=C\c2cc(OCc3cnc([S+](C)[O-])nc3)c(O)cc2Br)C1=O (stereo not drawn) in your answer.
≥ 6.30

Fill in reported pIC50 for this entry: CC(C)COc1cc(/C=C2\SC(=O)N(C)C2=O)c(Br)cc1O
≤ 5.00

Supply reported pIC50 belonging to this compound: CN1C(=O)S/C(=C\c2cc(OCc3ccncc3)c(O)cc2Br)C1=O
5.00 to 6.30

Tell me measured pIC50 for CN1C(=O)S/C(=C\c2cc(OCc3cnc(N)nc3C(F)(F)F)c(O)cc2Br)C1=O please.
≥ 6.30

Please look at this compound and report its pIC50: COc1cc(/C=c2\sc3n(c2=O)CCCN=3)c(Br)cc1O
≤ 5.00

Specify reported pIC50 for the compound shown: CN1C(=O)S/C(=C\c2cc(CC(F)(F)F)c(O)cc2Br)C1=O
5.00 to 6.30

* * *

- target.of.assay: Cyclic GMP-AMP synthase (Homo sapiens, UniProt Q8N884)
- assay.overview: Inhibition of recombinant His6-SUMO tagged human CGAS expressed in Escherichia coli BL21/pLys cells incubated for 20 mins by Kinase Glo chemiluminescence assay
In this section we review reported IC50 values for a set of compounds.

Below: 5 compounds and their reported IC50.
| compound | IC50 |
| --- | --- |
| COc1cc(/C=C2\SC(=S)N(C)C2=O)c(Br)cc1O | ≤ 0.5 µM |
| CN1C(=O)S/C(=C\c2cc(OCc3cnc(N)nc3)c(O)cc2Br)C1=O | ≤ 0.5 µM |
| CN1C(=O)S/C(=C\c2cc(OCc3ccnc(N)c3)c(O)cc2Br)C1=O | 0.5 to 10 µM |
| O=C1NC(=O)/C(=C/c2cccnc2)S1 | ≥ 10 µM |
| COc1cc(/C=C2\Sc3cnccc3C2=O)c(Br)cc1O | ≤ 0.5 µM |

Supply reported IC50 belonging to this compound: O=C1NC(=O)/C(=C/c2ccncc2C(F)(F)F)S1
≥ 10 µM

Using known records, supply IC50 for CC(C)C(=O)Nc1cncc(COc2cc(/C=C3\SC(=O)N(C)C3=O)c(Br)cc2O)c1
≥ 10 µM

Give IC50 for the following compound: CN1C(=O)S/C(=C\c2cc(OCc3cnc(Cl)nc3N)c(O)c(F)c2Br)C1=O
≤ 0.5 µM

Supply recorded IC50 for CN1C(=O)S/C(=C\c2cc(OCc3cnc(Nc4cccnc4)nc3)c(O)cc2Br)C1=O here.
0.5 to 10 µM

Identify the reported IC50 for the following entry. COc1cc(/C=C2\Sc3nccnc3C2=O)c(Br)cc1O
≥ 10 µM

Give IC50 for CC(Oc1cc(/C=C2\Sc3ncccc3C2=O)c(Br)cc1O)c1cccnc1 (stereo unspecified)
0.5 to 10 µM

Identify IC50 associated with the compound CN1C(=O)S/C(=C\c2cc(OCc3cncc(NCc4ccncc4)c3)c(O)cc2Br)C1=O
≥ 10 µM

Give reported IC50 value for CN1C(=O)S/C(=C\c2cc(OCc3ccnc(N)n3)c(O)cc2Br)C1=O
0.5 to 10 µM

* * *

Parameter: IC50. Scope: all listed entries.
- target.of.assay: Cyclic GMP-AMP synthase (Homo sapiens, UniProt Q8N884)
- assay.overview: Inhibition of recombinant His6-SUMO tagged human CGAS expressed in Escherichia coli BL21/pLys cells incubated for 20 mins by Kinase Glo chemiluminescence assay

Guide cases for IC50, answers given:
| mol | IC50 |
| --- | --- |
| CN1C(=O)S/C(=C\c2cc(OCc3cnc(NCc4cccnc4)nc3)c(O)cc2Br)C1=O | ≤ 500 nM |
| COc1cc(/C=C2\SC(=O)N(C)C2=O)c(Br)cc1NS(=O)(=O)c1ccc(C)cc1 | ≥ 10000 nM |

Supply reported IC50 belonging to this compound: CN1C(=O)S/C(=C\c2cc(OCc3cnc(NN)nc3)c(O)cc2Br)C1=O
≤ 500 nM

Supply reported IC50 belonging to this compound: COc1cc(/C=C2\Sc3ccccc3C2=O)c(Br)cc1O
500 to 10000 nM

Given O=C1/C(=C/c2cc(OCc3ccncc3)c(O)cc2Br)Sc2ncccc21 , respond with its IC50.
≤ 500 nM
